target: Human FXa (Homo sapiens, UniProt P00742); construct: Human FXa [Enzyme research Laboratories (USA)] enzyme; purchased Enzyme Research Laboratories (USA); assay: Oral administration test in mouse, human FXa inhibitory activity in serum; assay type: in vivo; conditions: ICR mice, 60 minutes, mean ± S.D., n = 3
Sequence (P00742 235-488 limits assumed): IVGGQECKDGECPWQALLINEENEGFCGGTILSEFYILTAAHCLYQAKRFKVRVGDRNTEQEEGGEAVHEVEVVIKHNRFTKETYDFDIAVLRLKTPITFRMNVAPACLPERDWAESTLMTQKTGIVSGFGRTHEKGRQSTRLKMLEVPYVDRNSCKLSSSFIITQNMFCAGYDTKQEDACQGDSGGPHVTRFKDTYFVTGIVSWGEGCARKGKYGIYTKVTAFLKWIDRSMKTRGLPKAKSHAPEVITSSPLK
Sequence (P00742 41-179 limits assumed): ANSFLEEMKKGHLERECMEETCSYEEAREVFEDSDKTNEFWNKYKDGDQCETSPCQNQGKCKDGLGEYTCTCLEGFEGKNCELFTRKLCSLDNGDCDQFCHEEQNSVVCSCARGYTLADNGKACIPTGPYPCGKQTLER
Structures can show the parent of a compound that is named as a salt.
Measurement Kind: inhibition at 10 mg/kg (%)
Express your answer in %, writing the number without its unit.

1) N=C(N)N1CCc2ccc(OCC3(C(=O)O)CCN(c4ccncc4)CC3)cc2C1 [Example 7, Dihydrochloride] = 40
2) CC(=N)N1CCC(Oc2ccc(N(Cc3nc4cc(C(=N)N)ccc4n3CC(=O)N[C@@H](C)c3ccccc3)C(=O)c3ccc(C(=O)O)cc3)cc2)CC1 [Example 17, Dihydrochloride] = 34
3) CC(=N)N1CCC(Oc2ccc(N(Cc3nc4cc(C(=N)N)ccc4n3CC(=O)NC3CCCCC3)C(=O)c3ccc(C(=O)O)cc3)cc2)CC1 = 14

Query: Entry CC(=N)N1CC[C@H](Oc2ccc([C@H](Cc3ccc4ccc(C(=N)N)cc4c3)C(=O)O)cc2)C1 [Comparative Example 1, reference compound] has what inhibition at 10 mg/kg?
Reply: 6
